experiment: Volume of distribution at steady state in rat at 15 mg/kg, iv; format: ADME, organism-based; parameters: dose 15 mg/kg, route intravenous; details: in vivo, read-out: Vdss
READOUT TYPE: Vd
Give the number first and the unit second.

Summary for this molecule, COc1ccc(N2CCN(CC[C@@H](OC(N)=O)c3ccccc3)CC2)cc1 : Vd is 1.77 L/kg

###

Property: TD50; scope: individual compounds
assay: Neurotoxicity in po dosed mouse by rotarod test; assay type: toxicity, organism-based; conditions: in vivo

>  <COMPOUND>
NC(=O)OC(CCN1CCN(c2ccccc2)CC1)c1ccccc1 (racemic)

>  <OBSERVED RESULT>
124 mg/kg

$$$$
>  <COMPOUND>
NC(=O)OC(CCN1CCN(c2ccccc2)CC1)c1ccc([N+](=O)[O-])cc1 (single isomer, unassigned)

>  <OBSERVED RESULT>
53.4 mg/kg

$$$$

Documented TD50 of NC(=O)OC(CCN1CCN(c2ccc([N+](=O)[O-])cc2)CC1)c1ccc(F)cc1 (single isomer, unassigned) : 97.8 mg/kg

Field TD50 (entry NC(=O)OC(CCN1CCN(c2ccccc2)CC1)c1ccc(F)cc1 (stereo not given) ) reads 141 mg/kg

// COc1ccc(N2CCN(CCC(OC(N)=O)c3ccccc3)CC2)cc1 (racemic) : TD50 value = 122 mg/kg

###

Measured inhibition in vivo at 10 mg/kg of individual entries
system: Mus musculus; assay: Analgesic activity in mouse assessed as inhibition of acetic acid-induced writhing response at 10 mg/kg, po administered 0.5 to 1 hr before acetic acid challenge; format: functional
Hi! Could you send only the number? It should be in %, unit omitted.

Worked cases, answers included:
>  <MOLECULE>
COc1ccc(N2CCN(CCC(OC(N)=O)c3ccc(Cl)c(C(F)(F)F)c3)CC2)cc1 (single isomer, unassigned)

>  <inhibition in vivo at 10 mg/kg, %>
46

$$$$
>  <MOLECULE>
NC(=O)OC(CCN1CCN(c2ccc(Cl)c(C(F)(F)F)c2)CC1)c1ccccc1 (single isomer, unassigned)

>  <inhibition in vivo at 10 mg/kg, %>
52

$$$$
>  <MOLECULE>
NC(=O)OC(CCN1CCN(c2ccccc2)CC1)c1cccc([N+](=O)[O-])c1 (single isomer, unassigned)

>  <inhibition in vivo at 10 mg/kg, %>
48

$$$$

Shifting focus to the molecule that follows.
The recorded inhibition in vivo at 10 mg/kg for NC(=O)OC(CCN1CCN(c2ccccc2)CC1)c1cccc(Cl)c1 (single isomer, unassigned) is 59

###

biological target: 5-hydroxytryptamine receptor 2A (Homo sapiens); assay: Antagonist activity at 5HT2A receptor
Sequence (P28223 whole entry): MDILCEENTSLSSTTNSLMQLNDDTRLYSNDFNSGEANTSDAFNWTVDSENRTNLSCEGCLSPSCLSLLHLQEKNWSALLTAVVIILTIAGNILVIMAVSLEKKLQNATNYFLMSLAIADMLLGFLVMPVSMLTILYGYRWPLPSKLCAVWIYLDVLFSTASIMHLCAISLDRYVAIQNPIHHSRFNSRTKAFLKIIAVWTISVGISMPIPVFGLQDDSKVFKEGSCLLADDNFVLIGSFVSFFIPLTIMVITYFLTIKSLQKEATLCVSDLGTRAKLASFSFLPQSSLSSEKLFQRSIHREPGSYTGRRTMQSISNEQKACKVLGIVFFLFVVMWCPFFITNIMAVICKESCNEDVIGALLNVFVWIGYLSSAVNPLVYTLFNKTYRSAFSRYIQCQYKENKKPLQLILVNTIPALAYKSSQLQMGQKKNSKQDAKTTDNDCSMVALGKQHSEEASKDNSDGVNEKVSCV
READOUT TYPE: IC50 (µM)
Supply the numeric figure in µM, leaving out any unit text.

Item: COc1ccc(N2CCN(CC[C@@H](OC(N)=O)c3ccccc3)CC2)cc1 | IC50: 5.8

###

experiment: Cmax in rat at 15 mg/kg, iv; type: ADME, organism-based; design: dose 15 mg/kg, route intravenous; settings: in vivo
READOUT TYPE: Cmax (ng/mL)
# number only, unit ng/mL dropped from output

# molecule COc1ccc(N2CCN(CC[C@@H](OC(N)=O)c3ccccc3)CC2)cc1 ; its Cmax = 9950

###

Reported TD50 is given for each of the following compounds.
assay: Neurotoxicity in ip dosed mouse by rotarod test; format: toxicity, organism-based; conditions: in vivo
Give just the number in mg/kg; leave the unit off.

>  <COMPOUND>
NC(=O)OC(CCN1CCN(c2ccccc2)CC1)c1ccccc1 (racemic)

>  <TD50 / mg/kg>
52.3

$$$$

Shift focus to the following entry.
GET /value?item= NC(=O)OC(CCN1CCN(c2ccccc2F)CC1)c1ccccc1 (single isomer, unassigned) &field=TD50 returns 44.7
